- Test system: CYP3A4 (Homo sapiens (Human), UniProt P08684)
- Sequence (P08684 whole entry): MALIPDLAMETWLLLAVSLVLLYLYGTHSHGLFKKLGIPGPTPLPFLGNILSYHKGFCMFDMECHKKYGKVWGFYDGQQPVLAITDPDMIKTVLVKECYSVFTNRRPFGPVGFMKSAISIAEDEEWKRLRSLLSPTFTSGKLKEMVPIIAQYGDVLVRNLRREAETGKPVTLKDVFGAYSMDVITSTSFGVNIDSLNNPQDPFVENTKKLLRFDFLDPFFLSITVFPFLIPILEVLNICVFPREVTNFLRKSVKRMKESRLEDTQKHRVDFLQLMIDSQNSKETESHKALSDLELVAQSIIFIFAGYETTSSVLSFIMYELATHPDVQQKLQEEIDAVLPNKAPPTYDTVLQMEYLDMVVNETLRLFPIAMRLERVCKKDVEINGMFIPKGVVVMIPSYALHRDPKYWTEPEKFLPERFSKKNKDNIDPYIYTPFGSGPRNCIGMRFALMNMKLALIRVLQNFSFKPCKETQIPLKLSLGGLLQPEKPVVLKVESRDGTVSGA
- Assay summary: CYP3A4 inhibition assay (human liver microsomes, testosterone 6β-hydroxylation)
- Applied conditions: read-out: CYP3A4 IC50, 40 μM testosterone
Collected IC50 values appear next to each entry.

Compound: C[C@@H]1COC[C@@H](Cc2cccc(-n3nccn3)c2)N1C(=O)c1ccccc1-n1nccn1 [Example 68]
IC50: 24 µM

Compound: O=C(c1cc(Cl)ccc1-n1nccn1)N1CCOC[C@H]1Cc1cc(-n2nccn2)ccc1F [Example 129]
IC50: 26 µM

Compound: Cc1ccc(C(=O)N2C[C@H](C)OC[C@H]2Cc2cccc(-n3nccn3)c2)c(-n2nccn2)c1 [Example 96]
IC50: 28 µM

Compound: Cc1ccc(-n2nccn2)c(C(=O)N2CCOC[C@H]2Cc2cccc(-n3cccn3)c2)c1 [Example 19]
IC50: 32 µM

Compound: Cc1ccc(C(=O)N2CCOC[C@H]2Cc2cccc(-n3nccn3)c2)c(-n2nccn2)c1C [Example 92]
IC50: 44 µM

Compound: Cc1ccc(-n2cccn2)cc1C[C@@H]1COCCN1C(=O)c1cccc(C)c1-n1nccn1 [Example 190]
IC50: 26 µM

Compound: O=C(c1ccc(Cl)cc1-n1nccn1)N1CCOC[C@H]1Cc1cccc(-n2nccn2)c1 [Example 77]
IC50: 16 µM

Compound: Cc1ccc(-n2nccn2)c(C(=O)N2CCOC[C@H]2Cc2cccc(-n3ccnn3)c2)c1 [Example 15]
IC50: 14 µM

Compound: Cc1ccc(C(=O)N2CCOC[C@H]2Cc2cc(F)cc(-n3nccn3)c2)c(-n2nccn2)c1 [Example 146]
IC50: 40 µM

Compound: Cc1ccc(-n2nccn2)c(C(=O)N2CCOC[C@H]2Cc2cccc(-c3ncccn3)c2)c1 [Example 17]
IC50: 33 µM

Compound: O=C(c1cccc(Cl)c1-n1nccn1)N1CCOC[C@H]1Cc1cc(-n2nccn2)ccc1Cl [Example 171]
IC50: 13 µM

Compound: Cc1ccc(C[C@@H]2COCCN2C(=O)c2ccccc2-n2nccn2)cc1-c1nccs1 [Example 193]
IC50: 0.6 µM

====

Collected IC50 values appear next to each entry.
- Test system: UniProtKB P08684
- Assay summary: CYP3A4 inhibition assay (human liver microsomes, testosterone 6β-hydroxylation)
- Applied conditions: read-out: CYP3A4 IC50, 40 μM testosterone

Compound: Cc1cccc(C(=O)N2C[C@@H](C)OC[C@H]2Cc2cc(-c3ncccn3)ccc2F)c1-n1nccn1 [Example 150]
Test system: UniProtKB P08684
Readout unit: µM
IC50: 32
--
Compound: Cc1cccc(C(=O)N2CCOC[C@H]2Cc2cc(-n3nccn3)ccc2F)c1-n1nccn1 [Example 127]
Test system: UniProtKB P08684
Readout unit: µM
IC50: 30
--
Compound: O=C(c1ccc(Cl)cc1-n1nccn1)N1CCOC[C@H]1Cc1cc(-n2nccn2)ccc1Cl [Example 170]
Test system: UniProtKB P08684
Readout unit: µM
IC50: 9.8
--
Compound: Cc1ccc(C(=O)N2CCOC[C@H]2Cc2cc(-c3ncccn3)ccc2F)c(-n2nccn2)c1C [Example 158]
Test system: UniProtKB P08684
Readout unit: µM
IC50: 40
--
Compound: O=C(c1ccccc1-n1nccn1)N1CCOC[C@H]1Cc1cccc(-c2cccnn2)c1 [Example 48]
Test system: UniProtKB P08684
Readout unit: µM
IC50: 9.6
--
Compound: Cc1ccc(-n2nccn2)c(C(=O)N2CCOC[C@H]2Cc2cccc(-n3nccn3)c2)c1F [Example 29]
Test system: UniProtKB P08684
Readout unit: µM
IC50: 39
--
Compound: Cc1ccc(-n2nccn2)c(C(=O)N2CCOC[C@H]2Cc2cc(-c3ncccn3)ccc2F)c1 [Example 155]
Test system: UniProtKB P08684
Readout unit: µM
IC50: 30
--
Compound: Cc1ccc(C(=O)N2CCOC[C@H]2Cc2cc(-c3cccnn3)ccc2F)c(-n2nccn2)c1 [Example 166]
Test system: UniProtKB P08684
Readout unit: µM
IC50: 19
--
Compound: CC[C@@H]1CN(C(=O)c2cc(C)ccc2-n2nccn2)[C@H](Cc2cccc(-n3nccn3)c2)CO1 [Example 142]
Test system: UniProtKB P08684
Readout unit: µM
IC50: 9.2
--
Compound: COc1ccc(C(=O)N2CCOC[C@H]2Cc2cc(-n3nccn3)ccc2F)c(-n2nccn2)c1 [Example 95]
Test system: UniProtKB P08684
Readout unit: µM
IC50: 49
